The origin of these recorded values is patent US20260234276A1.

Molecular target: pm6 (human, sulfated tyrosines at Y16 and Y17)
Sequence (peptide, as listed by the source): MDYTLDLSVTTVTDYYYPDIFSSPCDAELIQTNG
Assay: ELISA on coated peptide [cont.]

{"columns": ["Binder", "binding result"],
 "data": [
  ["3-33 (antibody, V domains shown) VH: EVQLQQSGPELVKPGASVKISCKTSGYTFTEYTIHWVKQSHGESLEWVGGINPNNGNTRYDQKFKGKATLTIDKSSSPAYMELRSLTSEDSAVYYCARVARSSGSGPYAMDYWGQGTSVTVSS VL: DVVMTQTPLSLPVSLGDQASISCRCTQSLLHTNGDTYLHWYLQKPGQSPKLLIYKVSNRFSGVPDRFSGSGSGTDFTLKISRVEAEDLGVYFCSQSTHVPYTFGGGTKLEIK", "binds"],
  ["3-81 (antibody, human IgG1, kappa, V domains shown, humanized, human IgG1 kappa) VH: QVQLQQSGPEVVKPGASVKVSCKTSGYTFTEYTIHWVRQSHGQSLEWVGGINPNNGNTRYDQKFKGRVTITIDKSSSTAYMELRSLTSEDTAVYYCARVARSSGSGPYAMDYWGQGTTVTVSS VL: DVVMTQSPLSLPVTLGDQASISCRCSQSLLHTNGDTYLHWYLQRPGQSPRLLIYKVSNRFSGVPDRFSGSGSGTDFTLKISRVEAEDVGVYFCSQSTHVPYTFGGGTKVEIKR", "binds"],
  ["3-44 (antibody, V domains shown) VH: QVQLKESGPGLVAPSQSLSITCTVSGFSLTDYGVSWIRQPPGKGPEWLGVIWGGGNTYYNSVLKSRLSISNDNSKSQVFLRMNSLQTADTAIYYCARPRRDYYALDYWGQGTSVTVAS VL: DVVMTQTPLSLPVSLGDQASISCRSSQSLVYTNGNTFLHWYLQKPGQSPKLLIYKVSNRFSGVPDRFSGSGSGTDFTLKISRVEAEDLGVYFCSQSTHVPPTFGGGTKLEIK", "binds"],
  ["3-48 (antibody, V domains shown) VH: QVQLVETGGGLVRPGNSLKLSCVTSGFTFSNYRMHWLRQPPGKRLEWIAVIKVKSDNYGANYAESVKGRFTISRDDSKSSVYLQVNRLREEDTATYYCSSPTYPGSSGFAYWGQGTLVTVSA VL: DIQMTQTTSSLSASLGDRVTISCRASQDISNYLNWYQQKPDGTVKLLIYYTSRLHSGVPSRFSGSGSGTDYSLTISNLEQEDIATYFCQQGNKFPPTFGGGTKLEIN", "binds"]
]}
